Field: phospho-S6 immunofluorescence (z-score). Provide a value for each of the compounds that follow.
# Test system: MDA-MB-468
# ASSAY: phospho-S6 immunofluorescence (DAPI-normalised), per-plate z-score; higher = higher phospho-S6 signal (less pathway suppression)
# RUN_CONDITIONS: co-treatment: GDC0941 450 nM; 24 h
Counter-ions that a name gives are not always drawn.
Would you mind answering with just the numeric figure?

Q. Output measured phospho-S6 immunofluorescence (z-score) for this item: CC(C)Cc1ccc([C@@H](C)C(=O)NS(C)(=O)=O)cc1 [Reparixin (L-lysine salt)] (compound 10 µM)
A. -1.6

Q. Output measured phospho-S6 immunofluorescence (z-score) for this item: C[C@@H](O[C@H]1OCCN(Cc2nn(P(=O)(O)O)c(=O)[nH]2)[C@H]1c1ccc(F)cc1)c1cc(C(F)(F)F)cc(C(F)(F)F)c1 [Fosaprepitant (dimeglumine)] (compound 10 µM)
A. -2.28

Q. Output measured phospho-S6 immunofluorescence (z-score) for this item: OCCNC1CCCc2c1[nH]c1ccc(-c3ccccc3)cc21 (configuration not stated) (compound 10 µM)
A. -5.16

Q. Output measured phospho-S6 immunofluorescence (z-score) for this item: CCCCCCn1c(O)c(N=NC(=O)c2ccccc2)c2ccccc21 (compound 10 µM)
A. -2.97

Q. Output measured phospho-S6 immunofluorescence (z-score) for this item: CCCSc1nc(N[C@@H]2C[C@H]2c2ccc(F)c(F)c2)c2nnn([C@@H]3C[C@H](OCCO)[C@@H](O)[C@H]3O)c2n1 [Ticagrelor] (compound 10 µM)
A. -1.29

Q. Output measured phospho-S6 immunofluorescence (z-score) for this item: c1ccc2c(c1)OCC(CN1CCCCC1)O2 (configuration not stated) [Piperoxan (hydrochloride)] (compound 10 µM)
A. 0.28

Q. Output measured phospho-S6 immunofluorescence (z-score) for this item: C=C[C@@]1(C)CC(=O)[C@]2(O)[C@@]3(C)[C@@H](O)CCC(C)(C)[C@@H]3[C@H](O)[C@H](OC(C)=O)[C@@]2(C)O1 [Forskolin] (compound 10 µM)
A. 1.82

----------
# Tested on: MDA-MB-468
# ASSAY: phospho-S6 immunofluorescence (DAPI-normalised), per-plate z-score; higher = higher phospho-S6 signal (less pathway suppression)
# RUN_CONDITIONS: co-treatment: lapatinib 1 uM; 24 h
Classify by measured phospho-S6 immunofluorescence (z-score): Met if it is equal to or exceeds 0.4, Not met if it is smaller.

Q. Please tell me: is the compound Nc1nc(N)nc(-c2cc(Cl)ccc2Cl)n1 [Irsogladine] (compound 10 µM) at or over 0.4 in terms of phospho-S6 immunofluorescence (z-score)?
A. Not met

Q. Please tell me: is the compound COc1cc(/C=C/C(=O)O)ccc1O [Ferulic acid (sodium)] (compound 10 µM) at or over 0.4 in terms of phospho-S6 immunofluorescence (z-score)?
A. Not met

Q. Please tell me: is the compound CN1[C@@H]2CC[C@H]1C[C@@H](OC(=O)c1c[nH]c3ccccc13)C2 [Tropisetron] (compound 10 µM) at or over 0.4 in terms of phospho-S6 immunofluorescence (z-score)?
A. Met

Q. Please tell me: is the compound O=S(=O)(O)c1cc(O)ccc1O [Ethamsylate] (compound 10 µM) at or over 0.4 in terms of phospho-S6 immunofluorescence (z-score)?
A. Not met

Q. Please tell me: is the compound Cc1cncc(CN2CCC(=C3c4ccc(Cl)cc4CCc4cccnc43)CC2)c1 [Rupatadine (Fumarate)] (compound 10 µM) at or over 0.4 in terms of phospho-S6 immunofluorescence (z-score)?
A. Not met

Q. Please tell me: is the compound OC[C@H]1O[C@@H](n2cnc3c(N[C@H]4CCC[C@@H]4O)ncnc32)[C@H](O)[C@@H]1O (compound 10 µM) at or over 0.4 in terms of phospho-S6 immunofluorescence (z-score)?
A. Met

Q. Please tell me: is the compound COc1cc(C(C)=O)ccc1OCCCN1CCC(c2noc3cc(F)ccc23)CC1 [Iloperidone] (compound 10 µM) at or over 0.4 in terms of phospho-S6 immunofluorescence (z-score)?
A. Not met

Q. Please tell me: is the compound CCCCCCn1c(O)c(N=NC(=O)c2ccccc2)c2ccccc21 (compound 10 µM) at or over 0.4 in terms of phospho-S6 immunofluorescence (z-score)?
A. Not met

----------
# System: MDA-MB-468
# ASSAY: phospho-S6 immunofluorescence (DAPI-normalised), per-plate z-score; higher = higher phospho-S6 signal (less pathway suppression)
# RUN_CONDITIONS: co-treatment: GDC0941 450 nM; 24 h
Counter-ions that a name gives are not always drawn.
READOUT_LABEL: phospho-S6 immunofluorescence (z-score)
Would you mind answering with just the numeric figure?

Q. Output measured phospho-S6 immunofluorescence (z-score) for this item: CC(C)c1cc(-c2ccc(F)c3ccccc23)nc(N)n1 (compound 10 µM)
A. -1.03

Q. Output measured phospho-S6 immunofluorescence (z-score) for this item: CCCN[C@H]1CCc2nc(N)sc2C1 [Pramipexole (dihydrochloride)] (compound 10 µM)
A. 0.87

Q. Output measured phospho-S6 immunofluorescence (z-score) for this item: COCCc1ccc(OCC(O)CNC(C)C)cc1 (stereo not given) [Metoprolol (Succinate)] (compound 10 µM)
A. 0.44

Q. Output measured phospho-S6 immunofluorescence (z-score) for this item: CCOC(=O)N[C@@H]1CC[C@@H]2[C@@H](C1)C[C@H]1C(=O)O[C@H](C)[C@H]1[C@H]2/C=C/c1ccc(-c2cccc(F)c2)cn1 [Vorapaxar] (compound 10 µM)
A. -5.92

Q. Output measured phospho-S6 immunofluorescence (z-score) for this item: CCc1ccc(OCc2ccccc2C(=O)Nc2ccc3nc(C)cc(N)c3c2)cc1 (compound 10 µM)
A. -5.98

Q. Output measured phospho-S6 immunofluorescence (z-score) for this item: CCOC(=O)O[C@]1(C(=O)OCCl)CC[C@H]2[C@@H]3CCC4=CC(=O)C=C[C@]4(C)[C@H]3[C@@H](O)C[C@@]21C [Loteprednol Etabonate] (compound 10 µM)
A. -0.86

Q. Output measured phospho-S6 immunofluorescence (z-score) for this item: COc1ccc(/C=C/C(=O)Nc2ccccc2C(=O)O)cc1OC [Tranilast] (compound 10 µM)
A. 1.77

Q. Output measured phospho-S6 immunofluorescence (z-score) for this item: CN1CC2c3ccccc3Oc3ccc(Cl)cc3C2C1 (stereo not given) [Asenapine (hydrochloride)] (compound 10 µM)
A. -0.8

Q. Output measured phospho-S6 immunofluorescence (z-score) for this item: CN1CCN(C2=Nc3ccccc3Oc3ccc(Cl)cc32)CC1 [Loxapine (succinate)] (compound 10 µM)
A. 0.7

Q. Output measured phospho-S6 immunofluorescence (z-score) for this item: COc1ccc(/C=C/C(=O)Nc2ccccc2C(=O)O)cc1OC [Tranilast (trans-)] (compound 10 µM)
A. 0.32

Q. Output measured phospho-S6 immunofluorescence (z-score) for this item: CN(C)C(=O)C(CCN1CCC(O)(c2ccc(Cl)cc2)CC1)(c1ccccc1)c1ccccc1 [Loperamide (hydrochloride)] (compound 10 µM)
A. -1.31

Q. Output measured phospho-S6 immunofluorescence (z-score) for this item: O=C(CN1C(=O)C2(CCCC2)NC[C@H]1c1cc(F)cc(F)c1)Nc1ccc2c(c1)C[C@@]1(C2)C(=O)Nc2ncccc21 [MK-3207 (Hydrochloride)] (compound 10 µM)
A. -0.51

Q. Output measured phospho-S6 immunofluorescence (z-score) for this item: CCOC(=O)N1CCC(NCCNC(=O)c2ccccc2C)CC1 (compound 10 µM)
A. 0.96

Q. Output measured phospho-S6 immunofluorescence (z-score) for this item: CC(C)NCC(O)COc1ccc(CCOCC2CC2)cc1 (stereo not given) [Betaxolol] (compound 10 µM)
A. 0.15

Q. Output measured phospho-S6 immunofluorescence (z-score) for this item: Cc1cc(C)nc(NS(=O)(=O)c2ccc(NC(=S)NC(=O)COc3ccc(Br)cc3Cl)cc2)n1 (compound 10 µM)
A. 0.46

Q. Output measured phospho-S6 immunofluorescence (z-score) for this item: CCn1c2ccccc2c2cc(Nc3ccnc(NCCCN4CCOCC4)n3)ccc21 (compound 10 µM)
A. -3.59

Q. Output measured phospho-S6 immunofluorescence (z-score) for this item: O=C(Nc1cccc(Cl)c1)c1ccccn1 (compound 10 µM)
A. -1.46

Q. Output measured phospho-S6 immunofluorescence (z-score) for this item: OCCOCCN1CCN(C(c2ccccc2)c2ccccc2)CC1 [Decloxizine (dihydrochloride)] (compound 10 µM)
A. 0.55

Q. Output measured phospho-S6 immunofluorescence (z-score) for this item: COCCOc1ccc(N2CCN(CCn3ncc4c3nc(N)n3nc(-c5ccco5)nc43)CC2)cc1 [Preladenant] (compound 10 µM)
A. -0.66

Q. Output measured phospho-S6 immunofluorescence (z-score) for this item: O=C(O[C@@H]1C[C@@H]2C[C@H]3C[C@H](C1)N2CC3=O)c1c[nH]c2ccccc12 [Dolasetron (Mesylate hydrate)] (compound 10 µM)
A. 0.52

Q. Output measured phospho-S6 immunofluorescence (z-score) for this item: CC(C)(C)C(=O)C(=Nc1ccc(Cl)cc1)NNc1ccc(Cl)cc1 (compound 10 µM)
A. -3.52

Q. Output measured phospho-S6 immunofluorescence (z-score) for this item: NC(=O)C(c1ccccc1)(c1ccccc1)[C@@H]1CCN(CCc2ccc3c(c2)CCO3)C1 [Darifenacin (hydrobromide)] (compound 10 µM)
A. -1.6

Q. Output measured phospho-S6 immunofluorescence (z-score) for this item: CC(C)(Cc1ccc2ccccc2c1)NC[C@@H](O)COc1cccc(Cl)c1C#N [NPS-2143 (hydrochloride)] (compound 10 µM)
A. -6

Q. Output measured phospho-S6 immunofluorescence (z-score) for this item: CC(C(=O)Nc1cc(C#N)ccc1CCCC(=O)O)c1ccc(F)c2ccccc12 (stereo not given) (compound 10 µM)
A. -3.03

Q. Output measured phospho-S6 immunofluorescence (z-score) for this item: CC(C)[C@H](N=C(NS(=O)(=O)c1ccc(Cl)cc1)N1C[C@H](c2ccccc2)C(c2ccc(Cl)cc2)=N1)C(N)=O (compound 10 µM)
A. -2.11
